Values compiled from the supplement of paper PMC6555819.

Test system: PPARg:RXRa (NR concentration 180 nM, RXRa partner concentration 90 nM)
Experiment: PBM binding z-score (relative to random genomic background probes); higher = stronger binding; sequences stand for … in GC…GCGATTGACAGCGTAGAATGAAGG
Assign classes using reported PBM binding z-score values and the ranges range A = under 3, range B = from 3 up to 6, range C = 6 and over, please.

ACTAGTTGGTCAGCTGAGGTCACACAAAATTCGG    range A
TAGCCTAGGTCAGATCGGGCGAGTATACGCTATA    range A
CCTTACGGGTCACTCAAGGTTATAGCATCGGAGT    range B
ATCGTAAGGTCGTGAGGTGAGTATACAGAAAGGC    range A
CTATGTAGGTTTAGGGGGTCATTCAGTTTGAAAG    range B
CGTCAACGTTCAACTAAGGTAACGTAAAGCACGC    range A
CGTCCAAGGTCAAGGTCACTGAAAGAGACTCGAA    range C
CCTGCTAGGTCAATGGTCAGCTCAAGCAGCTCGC    range B
CGAACTAGGTCAAAGTACAGTGAAAGGCGACGTA    range C
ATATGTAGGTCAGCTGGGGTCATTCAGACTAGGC    range C
ATATGTAGGTTAGGGGCATTCAGAAAGTAGGGAA    range B
CCGAGTAGGTTACGAGGGGGTATTCAGTGCGAAT    range A
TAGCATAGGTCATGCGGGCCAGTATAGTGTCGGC    range B
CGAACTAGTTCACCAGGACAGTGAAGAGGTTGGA    range A
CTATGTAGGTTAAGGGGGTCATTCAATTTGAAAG    range C
AGTCGGAGGACAAAGGTCAGAGCTACGCCAGTGA    range C
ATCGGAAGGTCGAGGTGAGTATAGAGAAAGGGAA    range A
CCTACTGGGCCATTCAGAGGTCATTGATCATATG    range A
CGAACTAGGTCACCAGAACAGTGAAGAGGTTGGA    range C
TCTGCTAGGTCAGTTGGGCAGCTAACGAGCTGCC    range A
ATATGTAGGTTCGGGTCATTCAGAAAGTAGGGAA    range B
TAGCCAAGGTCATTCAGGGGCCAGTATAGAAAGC    range B
CTCGAAAGGTCGTGCTCAGGTGAGTACACCAAAC    range B
CGGAGTAGGTTACGAGGGGGCATTCAGTGCGAAT    range B
CAAACTAGGTCACAGAGGTCAAACTCCGTGCGTA    range C
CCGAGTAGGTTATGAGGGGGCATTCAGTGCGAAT    range A
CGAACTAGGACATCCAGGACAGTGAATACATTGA    range A
CCTACAGGGCCAAGGTCATTGATCAGTCAAAGCA    range A
ACTCGGAGGACAAAGGTCAGAACTACGCCAGTGA    range C
GCTGCTAGGTCAACTGAAGGTCAGCTAAAGCTCG    range B
ATATGCAGGTTAGGGTCATTCAGAAAGTAGGGAA    range B
ATATGTAGGTTAGGGTCACTCAGAAAGTAGGGAA    range C
CGAACTAGGTCGAAGGACAGTGAAAGGCGACGTA    range B
TAGCCTAGGTCATAGGCCAGTATACCACGCGAAC    range B
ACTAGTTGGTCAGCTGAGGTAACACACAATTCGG    range A
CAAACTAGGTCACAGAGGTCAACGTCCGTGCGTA    range C
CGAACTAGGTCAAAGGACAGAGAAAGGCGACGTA    range C
TCGAATAGGTTACGGGGGCATTCAGGGATGAAGA    range B
CGCCCAAGGTCAGCAGGTCAGTGAAAGCGACGTG    range B
AGTCAGAGTTCATCTAGGTAACGTAAGATATGCT    range B
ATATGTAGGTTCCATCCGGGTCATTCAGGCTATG    range A
CGTACTAGGTCACCAGGACAGTGAAGAGGTTGGA    range C
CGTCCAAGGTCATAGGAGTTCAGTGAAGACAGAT    range B
CGAACTAGGTGAAAGGACAGTGAAAGGCGACGTA    range C
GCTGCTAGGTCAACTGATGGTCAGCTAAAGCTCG    range A
AGAATGAGGTTAGCAAAGATCAGGGAAACGCTTG    range A
ATCTGTAGGTTAGGGTCATTCAGAAAGTAGGGAA    range B
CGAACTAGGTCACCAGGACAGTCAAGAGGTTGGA    range C
CTATGTAGTTTAAGGGGGTCATTCAGTTTGAAAG    range B
